test: Validation screen for small molecules that induce DNA re-replication in MCF 10A normal breast cells (AID 463097); settings: MCF 10A cells, DNA re-replication phenotype imaging; series mostly up to 46.1 µM; further: nearly all actives have a fitted effect of over 60% in size
Records with an inconclusive call do not appear. Calls of active or inactive are those of the source. The call rests on the fitted dose curve; in most records, active means well fitted activation curve with a large enough effect; inconclusive means small, poorly fitted or top-dose-only effect; inactive means flat fitted curve, though single readings scatter.
One label from this list, please: active, inactive

Exercise: Outcome? O=c1oc(Cl)c(Cl)c2ccccc12
Solution: active

Exercise: Outcome? COC(=O)c1cc2c(cn1)[nH]c1ccccc12
Solution: inactive

Exercise: Outcome? CNCC[C@H](Oc1ccc(C(F)(F)F)cc1)c1ccccc1
Solution: inactive

Exercise: Outcome? N#CC(C#N)=Cc1ccc([N+](=O)[O-])c(O)c1
Solution: inactive

Exercise: Outcome? COc1ccc2[nH]cc(CCN(C)C)c2c1
Solution: inactive
